# method-summary: GHS categories as the set defines them, by LD50: 1 up to 5, 2 up to 50, 3 up to 300, 4 up to 2000, 5 above 2000 mg/kg
# assay-conditions: rat; in vivo; po
assay-metric: GHS category

compound: CCCCCCCCCCCCCCCCCC(=O)OC
experimental-result: 5
--
compound: CN(C)Cc1ccccc1Cl
experimental-result: 4
--
compound: CCCCCCCCC=CCCCCCCCC(=O)OCC(COC(=O)CCCCCCCC=CCCCCCCCC)(COC(=O)CCCCCCCC=CCCCCCCCC)COC(=O)CCCCCCCC=CCCCCCCCC (stereo not given)
experimental-result: 5
--
compound: CCCCCCCCOC(=O)CCc1cc(C(C)(C)C)c(O)c(C(C)(C)C)c1
experimental-result: 5
--
compound: Cc1cc(C(C)(CC(=O)OCCOC(=O)CC(C)(c2ccc(O)c(C(C)(C)C)c2)c2ccc(O)c(C(C)(C)C)c2)c2ccc(O)c(C(C)(C)C)c2)cc(C(C)(C)C)c1O (stereo not given)
experimental-result: 5
--
compound: Fc1ccc(Oc2ccnc3cc(Cl)cc(Cl)c23)cc1
experimental-result: 5
--
compound: CCCC(CCC)C(=O)Oc1ccccc1OC
experimental-result: 5
--
compound: CNC(=O)c1sc(-c2ccccc2OC)nc1C
experimental-result: 5
--
compound: CN1CCN(C(=S)SSC(=S)N2CCN(C)CC2)CC1
experimental-result: 5
--
compound: Cn1c(=O)oc2cc(C(=O)c3ccccc3)ccc21
experimental-result: 5

====

# method-summary: GHS categories as the set defines them, by LD50: 1 up to 5, 2 up to 50, 3 up to 300, 4 up to 2000, 5 above 2000 mg/kg
# assay-conditions: rat; in vivo; po
Where a SMILES comes first, the peptide text is derived from it. [ ]: non-standard residue; d: D form. pGlu = O=C1CC[C@@H](C(=O)O)N1; Thz = O=C(O)[C@@H]1CSCN1

molecule: CCCNC(=O)C(Cc1ccc(OCCN(CC)CC)cc1)NC(=O)c1ccccc1 (stereo not given)
GHS category: 4
//
molecule: CC(C)=CCCC(C)=CC1OCCO1
GHS category: 5
//
molecule: CCCS(=O)(=O)Nc1ccc(F)c(C(=O)c2cn(C(=O)c3c(Cl)cccc3Cl)c3ncc(-c4ccc(Cl)cc4)cc23)c1F
GHS category: 5
//
molecule: CCO[Si](CC(C)C)(OCC)OCC
GHS category: 5
//
molecule: CCCCNc1cc(C(=O)O)cc(S(N)(=O)=O)c1Oc1ccccc1
GHS category: 5
//
molecule: CCCCCCCCCC=CC=O
GHS category: 5
//
molecule: CCCC(=O)c1ccc(NC)c(O)c1
GHS category: 5
//
molecule: COP(=S)(OC)Oc1ccc(Cl)cc1C#N
GHS category: 4
//
molecule: CC(=O)NCc1c(I)c(NC(C)=O)c(I)c(C(=O)O)c1I
GHS category: 5
//
molecule: Clc1ccc(I)cc1Cc1ccc(OC2CCOC2)cc1 (stereo not given)
GHS category: 5
//
molecule: O=C1OC(=O)c2ccc3c4ccc5c6c(ccc(c7ccc1c2c73)c64)C(=O)OC5=O
GHS category: 5
//
molecule: CNC(=O)c1cc(C(O)CNC(C)(C)CCN2C(=O)OC(C)(C)c3ccccc32)ccc1O (stereo not given)
GHS category: 4
//
molecule: CO[C@@]1(NC(=O)C(C(=O)O)c2ccc(O)cc2)C(=O)N2C(C(=O)O)=C(CSc3nnnn3C)CO[C@@H]21 (stereo not given in full)
GHS category: 5
//
molecule: CNC(=O)C(=NNc1cccc(C)c1)C(C)=O
GHS category: 5
//
molecule: COc1ccc2cc([C@H](C)C(=O)OCCN3CCN(CCOC(=O)[C@@H](C)c4ccc5cc(OC)ccc5c4)CC3)ccc2c1
GHS category: 5
//
molecule: CC(=O)OC(C)Cc1ccccc1 (stereo not given)
GHS category: 5
//
molecule: C=CCOc1cc(Cl)ccc1C(=O)NCCN(CC)CC
GHS category: 5
//
molecule: CC(C)C[C@H](NC(=O)[C@@H](Cc1ccc2ccccc2c1)NC(=O)[C@H](Cc1ccc(O)cc1)NC(=O)[C@H](CO)NC(=O)[C@H](Cc1c[nH]c2ccccc12)NC(=O)[C@H](Cc1cnc[nH]1)NC(=O)[C@@H]1CCC(=O)N1)C(=O)N[C@@H](CCCN=C(N)N)C(=O)N1CCC[C@H]1C(=O)NCC(N)=O
GHS category: 3
//
molecule: O=C1CC[C@@H](C(=O)N2CSC[C@H]2C(=O)O)N1 ([pGlu]-[Thz]-OH)
GHS category: 5
//
molecule: CC1CC(OC(=O)COc2cccc(C(F)(F)F)c2)CC(C)(C)C1 (stereo not given)
GHS category: 5
